- Subject Of Test: TESK1 (human) (UniProt Q15569)
- Sequence (Q15569 whole entry, looked up): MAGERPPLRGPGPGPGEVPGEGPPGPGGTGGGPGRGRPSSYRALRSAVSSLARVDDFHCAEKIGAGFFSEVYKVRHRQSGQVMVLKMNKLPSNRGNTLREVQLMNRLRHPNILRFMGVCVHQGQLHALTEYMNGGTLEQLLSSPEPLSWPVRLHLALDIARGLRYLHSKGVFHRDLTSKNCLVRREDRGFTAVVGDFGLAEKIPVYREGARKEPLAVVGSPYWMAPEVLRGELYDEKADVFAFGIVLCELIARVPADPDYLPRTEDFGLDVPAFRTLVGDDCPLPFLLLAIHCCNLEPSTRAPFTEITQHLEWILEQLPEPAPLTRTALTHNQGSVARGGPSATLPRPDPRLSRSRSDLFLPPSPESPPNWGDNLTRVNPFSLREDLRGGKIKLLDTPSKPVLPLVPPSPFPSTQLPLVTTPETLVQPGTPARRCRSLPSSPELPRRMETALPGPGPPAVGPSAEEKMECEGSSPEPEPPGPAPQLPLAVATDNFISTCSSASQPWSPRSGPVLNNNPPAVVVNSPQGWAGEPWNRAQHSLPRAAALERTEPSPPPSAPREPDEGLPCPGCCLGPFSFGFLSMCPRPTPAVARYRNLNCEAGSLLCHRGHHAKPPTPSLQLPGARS
- Assay Info: KINOMEscan competition binding
- Condition Summary: compound 10.0 µM
Would you mind telling me the reported kinase still bound, per cent of control of each entry?
Answers are plain numbers, in %.

molecule=COc1cc2ncnc(Nc3cccc(Cl)c3)c2cc1OC subject_of_test="TESK1 (human) (UniProt Q15569)" value_units=% data_value=100
molecule=CCN(CCO)CCCOc1ccc2c(Nc3cc(CC(=O)Nc4cccc(F)c4)[nH]n3)ncnc2c1 subject_of_test="TESK1 (human) (UniProt Q15569)" value_units=% data_value=100
molecule=N#Cc1cc(-c2ccnc(Nc3ccc(-n4cnc(-c5cccnc5)n4)cc3)n2)cc(N2CCOCC2)c1 subject_of_test="TESK1 (human) (UniProt Q15569)" value_units=% data_value=54
molecule=CNC(=O)Nc1ccc(-c2nc(N3CC4CCC(C3)O4)c3cnn(C4CCC5(CC4)OCCO5)c3n2)cc1 subject_of_test="TESK1 (human) (UniProt Q15569)" value_units=% data_value=80
molecule="COc1cc(C)c(Sc2cnc(NC(=O)c3ccc(CNC(C)C(C)C)cc3)s2)cc1C(=O)N1CCN(C(C)=O)CC1 (stereo not drawn)" subject_of_test="TESK1 (human) (UniProt Q15569)" value_units=% data_value=100

Hi team, please reply with kinase still bound, per cent of control for each item in this list.
1. CCCS(=O)(=O)Nc1ccc(F)c(C(=O)c2c[nH]c3ncc(Cl)cc23)c1F
2. COc1cc(N2CCC(C(N)=O)CC2)ccc1Nc1nc(N)c(Cl)c(Nc2ccccc2S(=O)(=O)C(C)C)n1
3. CCN1CCN(Cc2ccc(NC(=O)c3ccc(C)c(/C=C/c4cnc5[nH]ccc5c4OC)c3)cc2C(F)(F)F)CC1
4. CC(=O)c1c(C)c2cnc(Nc3ccc(N4CCNCC4)cn3)nc2n(C2CCCC2)c1=O
5. CCc1nc(-c2cccc(C)c2)c(-c2ccnc(NC(=O)c3ccccc3)c2)s1

Result:
1: 13; 2: 100; 3: 15; 4: 99; 5: 81

Give measured kinase still bound, per cent of control for every item shown.
1. O=c1[nH]c2ccccc2n1C1CCN(Cc2ccc(-c3nc4cc5[nH]cnc5cc4nc3-c3ccccc3)cc2)CC1
2. CC1=C(C(=O)Nc2cc3cn[nH]c3cc2F)C(c2ccc(C(F)(F)F)cc2)CC(=O)N1 (stereo not drawn)
3. N#C/C(=C1/Nc2ccccc2S1)c1ccnc(NCCc2cccnc2)n1
4. CCOc1cc(N2CCC(O)CC2)ccc1Nc1ncc2c(n1)N(C)c1ccccc1C(=O)N2C

Result:
1: 74; 2: 92; 3: 87; 4: 100

Could you report kinase still bound, per cent of control for every entry in the following list?
1. COc1ccc(N(C(=O)Oc2cc(C(=O)Nc3cccc(C(F)(F)F)c3)ccc2C)c2ccnc(Nc3ccc(N4CCN(C)CC4)cc3)n2)c(OC)c1
2. C=CC(=O)Nc1ccc(C(=O)c2sc(Nc3ccc(N4CCN(C)CC4)cc3OC)nc2N)cc1
3. Cc1cn(-c2cc(C(=O)Nc3ccc(C)c(NC(=O)c4ccno4)c3)cc(C(F)(F)F)c2)cn1
4. COc1cc2c(Nc3ccc(NC(=O)c4ccccc4)cc3)ncnc2cc1OCCCN1CCOCC1

Result:
[3.8, 100, 100, 59]

====

- Subject Of Test: MAST1 (human) (UniProt Q9Y2H9)
- Sequence (Q9Y2H9 whole entry, looked up): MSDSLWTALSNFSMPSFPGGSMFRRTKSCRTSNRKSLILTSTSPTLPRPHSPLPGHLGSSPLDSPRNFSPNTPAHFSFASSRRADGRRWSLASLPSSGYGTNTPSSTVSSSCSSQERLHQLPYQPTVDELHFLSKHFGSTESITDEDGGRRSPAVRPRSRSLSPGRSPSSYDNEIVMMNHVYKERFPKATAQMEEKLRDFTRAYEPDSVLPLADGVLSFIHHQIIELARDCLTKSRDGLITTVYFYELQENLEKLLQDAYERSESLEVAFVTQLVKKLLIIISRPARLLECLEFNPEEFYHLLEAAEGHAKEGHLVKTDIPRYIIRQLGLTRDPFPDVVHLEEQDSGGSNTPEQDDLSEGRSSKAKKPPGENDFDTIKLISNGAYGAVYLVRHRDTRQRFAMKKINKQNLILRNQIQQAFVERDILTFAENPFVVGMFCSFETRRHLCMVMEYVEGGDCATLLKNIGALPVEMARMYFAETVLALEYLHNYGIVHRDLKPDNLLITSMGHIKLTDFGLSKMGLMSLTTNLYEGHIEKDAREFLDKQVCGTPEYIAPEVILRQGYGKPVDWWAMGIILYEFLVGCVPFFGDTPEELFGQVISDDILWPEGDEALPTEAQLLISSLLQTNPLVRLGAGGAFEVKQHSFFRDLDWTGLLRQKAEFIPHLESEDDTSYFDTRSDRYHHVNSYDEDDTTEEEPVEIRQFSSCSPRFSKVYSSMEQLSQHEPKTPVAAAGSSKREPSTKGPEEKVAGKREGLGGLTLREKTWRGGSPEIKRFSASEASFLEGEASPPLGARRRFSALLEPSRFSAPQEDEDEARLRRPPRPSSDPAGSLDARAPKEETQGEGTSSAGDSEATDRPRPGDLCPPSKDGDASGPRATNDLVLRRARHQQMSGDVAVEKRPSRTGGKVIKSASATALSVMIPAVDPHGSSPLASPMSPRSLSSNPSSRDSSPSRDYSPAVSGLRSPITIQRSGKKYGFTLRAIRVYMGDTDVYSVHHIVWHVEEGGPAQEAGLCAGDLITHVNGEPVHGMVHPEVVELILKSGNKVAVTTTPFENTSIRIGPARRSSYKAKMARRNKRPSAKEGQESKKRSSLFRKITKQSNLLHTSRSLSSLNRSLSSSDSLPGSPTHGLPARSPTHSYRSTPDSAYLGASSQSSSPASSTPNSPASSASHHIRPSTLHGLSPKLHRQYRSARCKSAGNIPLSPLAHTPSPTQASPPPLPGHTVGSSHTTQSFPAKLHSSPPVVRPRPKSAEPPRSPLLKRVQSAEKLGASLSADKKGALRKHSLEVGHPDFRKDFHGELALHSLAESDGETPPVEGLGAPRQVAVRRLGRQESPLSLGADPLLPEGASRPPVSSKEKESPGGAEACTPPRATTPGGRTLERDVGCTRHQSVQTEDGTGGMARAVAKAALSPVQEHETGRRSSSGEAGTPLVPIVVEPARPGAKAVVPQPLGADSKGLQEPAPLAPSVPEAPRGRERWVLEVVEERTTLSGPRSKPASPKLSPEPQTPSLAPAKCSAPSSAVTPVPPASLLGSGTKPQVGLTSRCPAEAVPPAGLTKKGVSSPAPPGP
- Assay Info: KINOMEscan competition binding
- Condition Summary: compound 10.0 µM
Measurement Type: kinase still bound, per cent of control (%)
One number for each entry, in %.

Sample records with kinase still bound, per cent of control:
compound=COc1cc2ncnc(Nc3cccc(Cl)c3)c2cc1OC data_value=79
compound="CC1=C(C(=O)Nc2cc3cn[nH]c3cc2F)C(c2ccc(C(F)(F)F)cc2)CC(=O)N1 (stereo unspecified)" data_value=77
compound=CCN1CCN(Cc2ccc(NC(=O)c3ccc(C)c(/C=C/c4cnc5[nH]ccc5c4OC)c3)cc2C(F)(F)F)CC1 data_value=100

Could I get kinase still bound, per cent of control for every one of these entries?
1. CNC(=O)Nc1ccc(-c2nc(N3CC4CCC(C3)O4)c3cnn(C4CCC5(CC4)OCCO5)c3n2)cc1
2. CC(=O)c1c(C)c2cnc(Nc3ccc(N4CCNCC4)cn3)nc2n(C2CCCC2)c1=O
3. N#C/C(=C1/Nc2ccccc2S1)c1ccnc(NCCc2cccnc2)n1

Result:
[95, 5, 100]

====

Can you tell me kinase still bound, per cent of control for the items I'm about to list?
- Subject Of Test: PI4KB (human)
- Assay Info: KINOMEscan competition binding
- Condition Summary: compound 10.0 µM

compound=CCN1CCN(Cc2ccc(NC(=O)c3ccc(C)c(/C=C/c4cnc5[nH]ccc5c4OC)c3)cc2C(F)(F)F)CC1 measurement_type="kinase still bound, per cent of control" data_value=91%

Please supply kinase still bound, per cent of control for each of the following items, keeping them in order.
1. CNC(=O)Nc1ccc(-c2nc(N3CC4CCC(C3)O4)c3cnn(C4CCC5(CC4)OCCO5)c3n2)cc1
2. COc1cc2ncnc(Nc3cccc(Cl)c3)c2cc1OC
3. C=CC(=O)Nc1ccc(C(=O)c2sc(Nc3ccc(N4CCN(C)CC4)cc3OC)nc2N)cc1

Result:
["100%", "44%", "18%"]

Each compound below has a reported value. Please supply its kinase still bound, per cent of control.
1. CCN(CCO)CCCOc1ccc2c(Nc3cc(CC(=O)Nc4cccc(F)c4)[nH]n3)ncnc2c1
2. COc1cc2c(Nc3ccc(NC(=O)c4ccccc4)cc3)ncnc2cc1OCCCN1CCOCC1

Result:
1: 100%; 2: 100%

====

- Subject Of Test: EPHA8 (human) (UniProt P29322)
- Sequence (P29322 whole entry, looked up): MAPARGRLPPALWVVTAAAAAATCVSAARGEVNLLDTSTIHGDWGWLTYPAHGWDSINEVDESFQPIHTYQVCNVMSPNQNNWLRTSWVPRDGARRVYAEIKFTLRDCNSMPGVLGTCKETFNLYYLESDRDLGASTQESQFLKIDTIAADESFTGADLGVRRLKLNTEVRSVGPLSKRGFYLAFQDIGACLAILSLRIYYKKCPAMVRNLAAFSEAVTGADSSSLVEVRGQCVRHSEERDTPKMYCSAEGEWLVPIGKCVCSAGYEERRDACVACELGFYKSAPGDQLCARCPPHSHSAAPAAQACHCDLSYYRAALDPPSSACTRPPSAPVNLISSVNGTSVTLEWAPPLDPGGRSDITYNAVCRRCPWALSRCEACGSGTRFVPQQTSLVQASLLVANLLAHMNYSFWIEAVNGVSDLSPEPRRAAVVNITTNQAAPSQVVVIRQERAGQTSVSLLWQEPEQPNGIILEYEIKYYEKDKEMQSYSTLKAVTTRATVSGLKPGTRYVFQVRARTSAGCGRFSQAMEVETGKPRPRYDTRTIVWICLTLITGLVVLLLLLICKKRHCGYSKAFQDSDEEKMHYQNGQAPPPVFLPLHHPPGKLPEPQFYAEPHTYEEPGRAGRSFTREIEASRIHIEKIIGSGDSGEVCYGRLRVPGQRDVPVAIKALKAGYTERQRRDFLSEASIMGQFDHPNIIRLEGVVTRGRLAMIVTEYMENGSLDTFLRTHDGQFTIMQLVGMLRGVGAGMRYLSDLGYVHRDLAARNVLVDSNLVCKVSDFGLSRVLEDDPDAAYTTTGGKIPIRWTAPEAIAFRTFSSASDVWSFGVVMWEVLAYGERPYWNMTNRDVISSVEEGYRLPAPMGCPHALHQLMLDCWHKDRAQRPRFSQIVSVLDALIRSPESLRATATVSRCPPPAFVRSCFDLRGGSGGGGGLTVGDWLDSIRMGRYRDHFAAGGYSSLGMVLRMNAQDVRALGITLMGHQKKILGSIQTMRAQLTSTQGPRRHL
- Assay Info: KINOMEscan competition binding
- Condition Summary: compound 10.0 µM
One threshold, 90%, splits the recorded kinase still bound, per cent of control values: lower ones are rule met, equal or higher ones are rule not met.

molecule=CCOc1cc(N2CCC(O)CC2)ccc1Nc1ncc2c(n1)N(C)c1ccccc1C(=O)N2C subject_of_test="EPHA8 (human) (UniProt P29322)" group_label="rule not met"
molecule=CCCS(=O)(=O)Nc1ccc(F)c(C(=O)c2c[nH]c3ncc(Cl)cc23)c1F subject_of_test="EPHA8 (human) (UniProt P29322)" group_label="rule not met"
molecule=CCN1CCN(Cc2ccc(NC(=O)c3ccc(C)c(/C=C/c4cnc5[nH]ccc5c4OC)c3)cc2C(F)(F)F)CC1 subject_of_test="EPHA8 (human) (UniProt P29322)" group_label="rule met"
molecule=O=c1[nH]c2ccccc2n1C1CCN(Cc2ccc(-c3nc4cc5[nH]cnc5cc4nc3-c3ccccc3)cc2)CC1 subject_of_test="EPHA8 (human) (UniProt P29322)" group_label="rule not met"
molecule="CC1=C(C(=O)Nc2cc3cn[nH]c3cc2F)C(c2ccc(C(F)(F)F)cc2)CC(=O)N1 (centres undefined)" subject_of_test="EPHA8 (human) (UniProt P29322)" group_label="rule met"
molecule="COc1cc(C)c(Sc2cnc(NC(=O)c3ccc(CNC(C)C(C)C)cc3)s2)cc1C(=O)N1CCN(C(C)=O)CC1 (centres undefined)" subject_of_test="EPHA8 (human) (UniProt P29322)" group_label="rule not met"
molecule=N#C/C(=C1/Nc2ccccc2S1)c1ccnc(NCCc2cccnc2)n1 subject_of_test="EPHA8 (human) (UniProt P29322)" group_label="rule not met"

Problem: hey, is kinase still bound, per cent of control for CC(=O)c1c(C)c2cnc(Nc3ccc(N4CCNCC4)cn3)nc2n(C2CCCC2)c1=O lower than 90% or not?
Result: rule not met

====

For each record, write down the corresponding kinase still bound, per cent of control.
- Subject Of Test: UniProt P22455
- Sequence (P22455 whole entry, looked up): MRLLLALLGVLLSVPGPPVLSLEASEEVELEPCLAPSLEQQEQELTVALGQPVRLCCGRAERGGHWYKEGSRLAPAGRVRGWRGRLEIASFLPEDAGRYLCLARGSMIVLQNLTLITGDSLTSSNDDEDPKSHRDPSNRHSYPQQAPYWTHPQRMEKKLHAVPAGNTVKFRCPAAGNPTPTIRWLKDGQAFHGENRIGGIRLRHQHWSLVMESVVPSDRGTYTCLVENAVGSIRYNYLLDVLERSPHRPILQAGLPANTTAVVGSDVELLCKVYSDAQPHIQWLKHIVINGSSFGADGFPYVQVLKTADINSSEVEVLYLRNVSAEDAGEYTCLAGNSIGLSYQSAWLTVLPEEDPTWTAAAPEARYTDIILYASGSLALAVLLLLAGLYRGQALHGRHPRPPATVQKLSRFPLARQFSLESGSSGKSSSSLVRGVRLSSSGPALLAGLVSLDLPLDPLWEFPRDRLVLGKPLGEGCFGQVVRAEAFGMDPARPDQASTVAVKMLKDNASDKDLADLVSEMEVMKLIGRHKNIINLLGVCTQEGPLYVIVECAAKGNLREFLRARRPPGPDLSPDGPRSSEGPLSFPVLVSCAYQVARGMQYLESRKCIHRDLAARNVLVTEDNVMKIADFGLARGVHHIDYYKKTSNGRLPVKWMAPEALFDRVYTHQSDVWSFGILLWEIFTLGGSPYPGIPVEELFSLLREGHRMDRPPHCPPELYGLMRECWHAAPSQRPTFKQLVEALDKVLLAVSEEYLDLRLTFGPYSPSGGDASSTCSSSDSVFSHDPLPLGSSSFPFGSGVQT
- Assay Info: KINOMEscan competition binding
- Condition Summary: compound 10.0 µM
One number for each entry, in %.

# example entries with known answers
compound=N#Cc1cc(-c2ccnc(Nc3ccc(-n4cnc(-c5cccnc5)n4)cc3)n2)cc(N2CCOCC2)c1 value_units=% data_value=99
compound=C=CC(=O)Nc1ccc(C(=O)c2sc(Nc3ccc(N4CCN(C)CC4)cc3OC)nc2N)cc1 value_units=% data_value=26
compound=COc1ccc(N(C(=O)Oc2cc(C(=O)Nc3cccc(C(F)(F)F)c3)ccc2C)c2ccnc(Nc3ccc(N4CCN(C)CC4)cc3)n2)c(OC)c1 value_units=% data_value=0.4

Batch request: kinase still bound, per cent of control per item, same order as input.
1. CCOc1cc(N2CCC(O)CC2)ccc1Nc1ncc2c(n1)N(C)c1ccccc1C(=O)N2C
2. O=c1[nH]c2ccccc2n1C1CCN(Cc2ccc(-c3nc4cc5[nH]cnc5cc4nc3-c3ccccc3)cc2)CC1
3. COc1cc(N2CCC(C(N)=O)CC2)ccc1Nc1nc(N)c(Cl)c(Nc2ccccc2S(=O)(=O)C(C)C)n1
4. CCCS(=O)(=O)Nc1ccc(F)c(C(=O)c2c[nH]c3ncc(Cl)cc23)c1F
5. COc1cc2ncnc(Nc3cccc(Cl)c3)c2cc1OC
6. Cc1cn(-c2cc(C(=O)Nc3ccc(C)c(NC(=O)c4ccno4)c3)cc(C(F)(F)F)c2)cn1

Result:
100
100
100
100
98
100
